System: MDR1 (P-gp)
Test: Blood-brain-barrier (BBB) penetration potential via MDCK-MDR1 permeability assay
Conditions: dog, MDCK-MDR1, pH 7.4, MDCK-MDR1: Papp A-B, A-B direction
# note: exactly 2 ×10⁻⁶ cm/s is not below, so it is class 0; use class 1 for Papp A→B at 120 min, 5 μM strictly under it

{"molecule": "CN(c1ccc(-c2cc3oc(=O)n(C)c3cc2O)nn1)[C@@H]1C[C@H]2CC[C@H](N2)[C@@H]1F (single isomer, unassigned) [Compound 79A]", "category label": "class 0"}
{"molecule": "CN(c1ccc(-c2cc(F)c(-c3ccn(C)c(=O)c3)cc2O)nn1)[C@@H]1C[C@H]2CC(F)(F)[C@@H](C1)N2 [Compound 22A]", "category label": "class 1"}

Take the molecule CN(c1ccc(-c2ccc(-c3cnc(C#N)cn3)cc2O)nn1)[C@H]1C[C@@H]2CCC[C@@H](N2)[C@H]1F [Compound 28B] and say whether its Papp A→B at 120 min, 5 μM is less than 2 ×10⁻⁶ cm/s.
class 1

Also CN(c1ccc(-c2cc(F)c(-c3ccn(C)c(=O)c3)cc2O)nn1)[C@@H]1C[C@H]2CC[C@H](N2)[C@@H]1F , if possible.
class 1

Further, for CN(c1ccc(-c2cc3cnccc3cc2O)nn1)[C@@H]1C[C@H]2CC[C@H](N2)[C@@H]1F (single isomer, unassigned) ?
class 0

Entry to check: CC(=O)N(C)c1ccc(-c2ccc(N(C)[C@H]3C[C@@H]4CC[C@@H](N4)[C@H]3F)nn2)c(O)c1 [Compound 35B]
class 1

###

Tested on: MDR1
Test: in vitro
Details: dog, MDCK-MDR1, pH 7.4
quantity kind: efflux ratio at 120 min, 5 μM
The answer should be a number; do not append a unit.

Please report the recorded efflux ratio at 120 min, 5 μM for CN(c1ccc(-c2cc3ncn(CC(F)(F)F)c(=O)c3cc2O)nn1)[C@@H]1C[C@H]2CCC[C@@H]([C@@H]1F)N2C (single isomer, unassigned) [Compound 109A] .
23

Please answer likewise for CN(C)C(=O)c1cc(O)c(-c2ccc(N(C)[C@H]3C[C@@H]4CC[C@@H](N4)[C@H]3F)nn2)cc1F (single isomer, unassigned) [Compound 53B]
153

###

System: MDR1 (P-gp)
Assay: Blood-brain-barrier (BBB) penetration potential via MDCK-MDR1 permeability assay
Conditions: dog, MDCK-MDR1, pH 7.4, MDCK-MDR1: Papp B-A, B-A direction
quantity kind: Papp B→A at 120 min, 5 μM (×10⁻⁶ cm/s)
Provide the reading as a plain figure in ×10⁻⁶ cm/s.

Reported Papp B→A at 120 min, 5 μM for CC#Cc1ccc(-c2ccc(N(C)[C@@H]3C[C@H]4CC[C@H](N4)[C@@H]3F)nn2)c(O)c1 (single isomer, unassigned) [Compound 30A] : what is it?
19.7

Lookup Cc1ccc(-c2ccc(-c3ccc(N(C)[C@@H]4C[C@H]5CCC[C@H](N5)[C@@H]4F)nn3)c(O)c2)nn1 [Compound 27A]
46.6

###

System: MDR1-MDCK cell monolayers
Conditions: dog, MDCK-MDR1, 120 min, 5 μM, pH 7.4
Recorded measurements of MDCK-MDR1: % Recov A-B, one per entry
I only need the number, in %, no unit after it.

{"molecule": "CCc1cn(-c2ccc(-c3ccc(N(C)[C@H]4C[C@@H]5CC(F)(F)[C@H](C4)N5)nn3)c(O)c2)nn1 (single isomer, unassigned) [Compound 64B]", "quantity kind": "MDCK-MDR1: % Recov A-B", "unit tag": "%", "obs value": 69}
{"molecule": "CN(c1ccc(-c2cc3ncn(CC(F)(F)F)c(=O)c3cc2O)nn1)[C@@H]1C[C@H]2CC(F)(F)[C@@H](C1)N2C (single isomer, unassigned) [Compound 110A]", "quantity kind": "MDCK-MDR1: % Recov A-B", "unit tag": "%", "obs value": 80}

What does the data say about its MDCK-MDR1: % Recov A-B? Entry: O=c1c2cc(O)c(-c3ccc(N(C4CC4)[C@@H]4C[C@H]5CC[C@H](N5)[C@@H]4F)nn3)cc2ncn1CC(F)(F)F (single isomer, unassigned) [Compound 60A]
94

Moving on to CN(c1ccc(-c2cc3cc[nH]c(=O)c3s2)nn1)[C@@H]1C[C@H]2CC[C@H](N2)[C@@H]1F (single isomer, unassigned) [Compound 66A]
93

Lookup O=c1c2cc(O)c(-c3ccc(N(C4CC4)[C@H]4C[C@@H]5CC[C@@H](N5)[C@H]4F)nn3)cc2ncn1CC(F)(F)F (single isomer, unassigned) [Compound 60B]
88

###

The following molecules are listed with their measured MDCK-MDR1: % Recov B-A values.
System: MDR1-MDCK cell monolayers
Test: Blood-brain-barrier (BBB) penetration potential via MDCK-MDR1 permeability assay
Settings: B-A direction
The reply should contain only the number, in %.

Could you share which MDCK-MDR1: % Recov B-A value was measured for CN(c1ccc(-c2ccc(-n3nccn3)cc2O)nn1)[C@H]1C[C@@H]2CCC[C@@H](N2)[C@H]1F [Compound 5B] ?
52

Please do the same for CN(c1ccc(-c2ccc(C#N)cc2O)nn1)[C@@H]1C[C@H]2CC[C@H](N2)[C@@H]1F [Compound 38A] as well.
85

Please do the same for CC(=O)N(C)c1ccc(-c2ccc(N(C)[C@H]3C[C@@H]4CC[C@@H](N4)[C@H]3F)nn2)c(O)c1 [Compound 35B] as well.
99

###

Form field: MDCK-MDR1: % Recov A-B (one value per entry).
Test system: MDR1-MDCK cell monolayers
Conditions: dog, MDCK-MDR1, 120 min, 5 μM, pH 7.4

Worked set:
{"compound": "Cc1nc2cc(-c3ccc(N(C)[C@H]4C[C@@H]5CC[C@H]([C@H]4F)N5C)nn3)c(O)cc2c(=O)n1CC(F)(F)F (single isomer, unassigned) [Compound 130B]", "target": "MDR1-MDCK cell monolayers", "obs value": "107%"}
{"compound": "CN(C)C(=O)c1cc2cc(O)c(-c3ccc(N(C4CC4)[C@@H]4C[C@H]5CC[C@H](N5)[C@@H]4F)nn3)cc2o1 [Compound 86A]", "target": "MDR1-MDCK cell monolayers", "obs value": "93%"}

Given the compound CN(c1ccc(-c2cc3ncn(CC(F)(F)F)c(=O)c3cc2O)nn1)[C@@H]1C[C@H]2CC[C@@H]([C@@H]1F)N2C (single isomer, unassigned) [Compound 108A] , what is its reported MDCK-MDR1: % Recov A-B?
82%

Next up: CN1[C@@H]2CC[C@H]1[C@H](F)[C@H](N(c1ccc(-c3cc4oc(C(=O)N5CCC5)cc4cc3O)nn1)C1CC1)C2 (single isomer, unassigned) [Compound 92A]
93%

Proceed to CC(=O)N(C)c1ccc(-c2ccc(N(C)[C@@H]3C[C@H]4CC[C@H](N4)[C@@H]3F)nn2)c(O)c1 [Compound 35A]
102%

Request: CN(c1ccc(-c2cc3cc[nH]c(=O)c3s2)nn1)[C@H]1C[C@@H]2CC[C@@H](N2)[C@H]1F (single isomer, unassigned) [Compound 66B]
98%

###

System: MDR1-MDCK cell monolayers
Conditions: dog, MDCK-MDR1, 120 min, 5 μM, pH 7.4
quantity kind: MDCK-MDR1: % Recov A-B (%)
Use % as the unit, but write only the number.

Guide cases for MDCK-MDR1: % Recov A-B, answers given:
{"compound": "CN(c1ccc(-c2cc3ccn(C)c(=O)c3s2)nn1)[C@@H]1C[C@H]2CC[C@H](N2)[C@@H]1F (single isomer, unassigned) [Compound 67A]", "obs value": 94}
{"compound": "CN(c1ccc(-c2cc3ncn(CC(F)(F)F)c(=O)c3cc2O)nn1)[C@H]1C[C@@H]2CC(F)(F)[C@H](C1)N2 [Compound 59B]", "obs value": 107}

So what's the measured MDCK-MDR1: % Recov A-B for this one? CN(C)C(=O)c1cc(O)c(-c2ccc(N(C)[C@@H]3C[C@H]4CC[C@@H]([C@@H]3F)N4C)nn2)cc1F (single isomer, unassigned) [Compound 104A]
106

Entry CN(c1ccc(-c2cn3c(=O)ccnc3cc2O)nn1)[C@H]1C[C@@H]2CC[C@@H](N2)[C@H]1F (single isomer, unassigned) [Compound 82B] please
72

// repeat for CN(c1ccc(-c2ccc(C(F)F)cc2O)nn1)[C@H]1C[C@@H]2CC[C@@H](N2)[C@H]1F (single isomer, unassigned) [Compound 120B] and report
60

Could you do the same for CN(C)C(=O)c1cc2cc(O)c(-c3ccc(N(C)[C@H]4C[C@@H]5CC[C@H]([C@H]4F)N5C)nn3)cc2o1 (single isomer, unassigned) [Compound 106B] , please?
92

###

Tested on: mHTT protein in GM04724 (CAG 70/20) Huntington's disease patient lymphoblast cells
Test: mHTT protein assay, 2B7-MW1 assay via Mesoscale Discovery (MSD)
Type: cell-based, human
Details: GM04724 Huntington's disease patient lymphoblasts
Procedure: Example A10: mHTT Protein Assay Compounds are tested on GM04724 (CAG 70/20) Huntington's disease patient lymphoblast cells at doses ranging from 10 μM to 0.6 nM. 4,500 cells/well are seeded in 384 well plates. […] Compounds are incubated for 48 hours. mHTT protein levels are assessed by the 2B7-MW1 assay via Mesoscale Discovery (MSD) as previously reported (Macdonald et al., 2014). […] The viability readout is carried out by CTG according to the manufacturer's instructions.
Listed next: entries and their corresponding EC50.

Please review the entries below; each comes with its answer.
{"molecule": "CN(c1ccc(-c2ccc(-n3cnc(Cl)c3)cc2O)nn1)[C@H]1C[C@@H]2CC(F)(F)[C@H](C1)N2 [Compound 37B]", "EC50": "51 to 100 nM"}
{"molecule": "COc1cnc(-c2ccc(-c3ccc(N(C)[C@H]4C[C@@H]5CCC[C@@H](N5)[C@H]4F)nn3)c(O)c2)cn1 [Compound 29B]", "EC50": "0.01 to 15 nM"}
{"molecule": "Cn1cnc2cc(-c3ccc(N(C4CC4)[C@@H]4C[C@H]5CC[C@H](N5)[C@@H]4F)nn3)c(O)cc2c1=O [Compound 56A]", "EC50": "101 to 500 nM"}
{"molecule": "CN(c1ccc(-c2ccc(-c3ccn(C)n3)cc2O)nn1)[C@H]1C[C@@H]2CC[C@@H](N2)[C@H]1F (single isomer, unassigned) [Compound 36B]", "EC50": "0.01 to 15 nM"}
{"molecule": "CN(c1ccc(-c2ccc(-n3ccnc3)cc2O)nn1)[C@@H]1C[C@H]2CC[C@H](N2)[C@@H]1F", "EC50": "16 to 50 nM"}
{"molecule": "COc1cnc(-c2ccc(-c3ccc(N(C)[C@@H]4C[C@H]5CCC[C@H](N5)[C@@H]4F)nn3)c(O)c2)cn1 [Compound 29A]", "EC50": "16 to 50 nM"}
{"molecule": "Cc1cc(=O)c2cc(O)c(-c3ccc(N(C)[C@H]4C[C@@H]5CC[C@@H](N5)[C@H]4F)nn3)cc2o1 [Compound 49B]", "EC50": "0.01 to 15 nM"}
{"molecule": "CN(c1ccc(-c2cc3ccncc3cc2O)nn1)[C@H]1C[C@@H]2CC[C@@H](N2)[C@H]1F (single isomer, unassigned) [Compound 87B]", "EC50": "0.01 to 15 nM"}
{"molecule": "CN(c1ccc(-c2ccc(-n3ccnc3)cc2O)nn1)[C@H]1C[C@@H]2CCC[C@@H](N2)[C@H]1F [Compound 11B]", "EC50": "0.01 to 15 nM"}
{"molecule": "CN(c1ccc(-c2ccc(-n3cnc(Cl)c3)cc2O)nn1)C1CC2CC(F)(F)C(C1)N2 (single isomer, unassigned) [Compound 37A]", "EC50": "16 to 50 nM"}

Reported EC50 for CN(c1ccc(-c2cc(F)c(-c3ccn(C)c(=O)c3)cc2O)nn1)[C@@H]1C[C@H]2CC[C@H](N2)[C@@H]1F : what is it?
0.01 to 15 nM

Request: CN(c1ccc(-c2ccc(-c3cn[nH]c3)cc2O)nn1)[C@H]1C[C@@H]2CC[C@@H](N2)[C@H]1F (single isomer, unassigned) [Compound 42B]
0.01 to 15 nM

Subsequent entry: CN(c1ccc(-c2ccc(-c3cn[nH]c3)cc2O)nn1)C1CC2COCC(N2)C1F (stereo not shown) [Compound 8A]
0.01 to 15 nM
